Where a name gives a salt, the structure may show the parent alone.
For each of the compounds below, state its melting point.

Returns the measured melting point for the input compound. Input: Cc1nnc2n1CCN(C(=O)[C@H]1CC[C@H](Nc3nccc(-n4ccc5c(OCCCS(C)(=O)=O)cccc54)n3)CC1)C2 (as salt: HCl)
178 to 180 °C

What does the data say about its melting point? Entry: Cc1nnc2n1CCN(C(=O)[C@H]1CC[C@H](Nc3nccc(-n4ccc5c(OC(F)F)cccc54)n3)CC1)C2 (as salt: HCl)
205 to 210 °C

If you can, please state the reported melting point value of O=C([C@H]1CC[C@H](Nc2nccc(-n3ncc4c(C(F)(F)F)cccc43)n2)CC1)N1CCn2cnnc2C1 .
223 to 227 °C

Which value of melting point has been reported for Cc1cccc2c1nnn2-c1ccnc(N[C@H]2CC[C@H](C(=O)N3CCn4cc(C(F)(F)F)nc4C3)CC2)n1 (as salt: HCl) in the records?
258 to 260 °C

Item under review: O=C([C@H]1CC[C@H](Nc2nccc(-n3nnc4c(OC(F)F)cccc43)n2)CC1)N1CCn2cnnc2C1 (as salt: HCl) . Reported melting point?
185 to 190 °C

---

So I've got a bunch of molecules here, and I need their melting point values.
Counter-ions that a name gives are not always drawn.

Reported melting point for Cc1cnc2n1CCN(C(=O)[C@H]1CC[C@H](Nc3nccc(-n4ccc5c(OC(F)F)cccc54)n3)CC1)C2 (as salt: HCl) : what is it?
190 to 195 °C

Report melting point for Cc1cccc2c1nnn2-c1ccnc(N[C@H]2CC[C@H](C(=O)N3CCn4c(C)nnc4C3)CC2)n1 (as salt: HCl) please.
246 to 248 °C

Given the molecule CC(C)(O)c1cccc2c1nnn2-c1ccnc(N[C@H]2CC[C@H](C(=O)N3CCn4cnnc4C3)CC2)n1 (as salt: HCl) , what is its reported melting point?
180 to 200 °C

Which melting point is listed for Cc1cccc2c1nnn2-c1ccnc(N[C@H]2CC[C@H](C(=O)N3CCn4cnnc4C3)CC2)n1 (as salt: HCl) ?
236 to 238 °C

Bench note: what melting point did Cc1nnc2n1CCN(C(=O)[C@H]1CC[C@H](Nc3nccc(-n4nnc5c(OC(F)F)cccc54)n3)CC1)C2 (as salt: HCl) show?
190 to 195 °C

State the recorded melting point for this entry: O=C([C@H]1CC[C@H](Nc2nccc(-n3ccc4c(OCC5CCS(=O)(=O)C5)cccc43)n2)CC1)N1CCn2cnnc2C1 (stereo partly shown) (as salt: HCl)
215 to 220 °C

Give its melting point value. Item: C=C(C)c1cccc2c1ccn2-c1ccnc(N[C@H]2CC[C@H](C(=O)N3CCn4cnnc4C3)CC2)n1 (as salt: HCl)
186 to 188 °C

Return reported melting point; argument: Cc1nnc2n1CCN(C(=O)[C@H]1CC[C@H](Nc3nccc(-n4ncc5c(C(F)(F)F)cccc54)n3)CC1)C2
258 to 260 °C

What does the record list as melting point for C=C(C)c1cccc2c1ccn2-c1ccnc(N[C@H]2CC[C@H](C(=O)N3CCn4c(C)nnc4C3)CC2)n1 (as salt: HCl) ?
216.6 to 221 °C

For the molecule shown here, Cc1nnc2n1CCN(C(=O)[C@H]1CC[C@H](Nc3nccc(-n4nnc5c(C(C)(C)O)cccc54)n3)CC1)C2 (as salt: HCl) , give the reported melting point.
145 to 150 °C

Given C=C(C)c1cccc2c1ccn2-c1ccnc(N[C@H]2CC[C@H](C(=O)N3CCn4c(C)cnc4C3)CC2)n1 (as salt: HCl) , state its recorded melting point.
220 to 224.9 °C

Requested read-out: melting point. Entry: O=C([C@H]1CC[C@H](Nc2nccc(-n3ccc4c(OC(F)F)cccc43)n2)CC1)N1CCn2cnnc2C1 (as salt: HCl)
175 to 178 °C

What value of measured melting point is listed for O=C([C@H]1CC[C@@H](Nc2nccc(-n3nnc4c(C(F)(F)F)cccc43)n2)CC1)N1CCn2cnnc2C1 (as salt: HCl) ?
200 to 210 °C
